Each entry below carries its reported inhibition.
Molecular target: Serine/threonine-protein kinase 3 (Homo sapiens) (UniProt Q13188);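 further: each value is the mean inhibition of MST2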
Sequence (whole entry): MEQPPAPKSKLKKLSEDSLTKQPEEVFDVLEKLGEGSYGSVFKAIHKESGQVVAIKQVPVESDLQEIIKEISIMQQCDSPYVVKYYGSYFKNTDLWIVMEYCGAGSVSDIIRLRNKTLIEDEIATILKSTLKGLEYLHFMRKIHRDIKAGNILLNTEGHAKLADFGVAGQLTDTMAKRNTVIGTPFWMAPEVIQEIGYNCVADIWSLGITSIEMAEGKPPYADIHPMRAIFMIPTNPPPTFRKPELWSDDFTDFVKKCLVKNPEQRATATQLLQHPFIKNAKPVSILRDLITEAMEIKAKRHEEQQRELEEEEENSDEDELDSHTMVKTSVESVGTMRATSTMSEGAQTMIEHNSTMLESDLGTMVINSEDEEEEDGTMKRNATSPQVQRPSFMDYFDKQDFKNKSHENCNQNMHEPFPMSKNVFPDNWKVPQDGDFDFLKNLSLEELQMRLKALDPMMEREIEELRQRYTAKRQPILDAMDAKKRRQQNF
Settings: at 1 µM
Note: unit % is implicit; provide only the numeric part.

CPD_SMILES	inhibition (%)
CC(C)c1ccc2c(c1)NC(=O)/C2=N/Nc1ccc(S(N)(=O)=O)cc1	9.13

Incoming: # get_value(readout='inhibition', item= Cc1ccc2c(-c3ccnc(Nc4cccc(C(F)(F)F)c4)n3)c(-c3ccccc3)nn2n1 )
Outgoing: 6.69

Incoming: # get_value(readout='inhibition', item= COc1ccc2ncnc(Nc3ccc(OCc4ccccc4)cc3)c2c1 )
Outgoing: 3.92

Incoming: # get_value(readout='inhibition', item= NS(=O)(=O)c1cccc(Nc2cc(-c3ccc(F)cc3)n[nH]2)c1 )
Outgoing: 13.4

Incoming: # get_value(readout='inhibition', item= N#Cc1cccc(Nc2nccc(-c3cnn4ncccc34)n2)c1 )
Outgoing: 24.4

Provenance of the data: ChEMBL document CHEMBL1961873
